Exercise: for every item that follows, state its recorded protein stability index.
B1: MNAT1 (parent)
chain: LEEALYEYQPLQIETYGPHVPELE

# Variants of: B1
# assay-procedure: protein stability index of a GFP-peptide fusion (GPS, HEK-293T) (PSI 1-6); higher = more stable;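 note: lentivirally expressed fusions sorted by FACS into six bins by GFP to DsRed ratio, PSI derived from sequencing read proportions per bin multiplied by bin number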
# measurement-conditions: c terminus: a fixed tail appended
Give bare numbers.

Illustrative cases are given below, each with its answer.
In [3]: df
Out[3]:
   variant_key  recorded_value
0         G17W            1.74
1         I13C            4.14
2          E7W             2.1
3         L11Q            4.28
4         P18H            2.81
5         V20Y            2.78

For each of the variants below, state protein stability index.
1. E7K
2. A4T
3. Q9G
4. Q12K
5. E14T
6. E14A
7. L1C

[1.87, 4.27, 3.46, 1.84, 2.32, 2.3, 4.72]
